Hello, the source for this data is ChEMBL document CHEMBL3430912, in case you need it.

- Test system: Leishmania donovani
- TEST DESCRIPTION: GSK_TCAKS: pIC50 Leishmania donovani Imaging: Infected Macrophages. Assay plates (384-well) were prepared by adding 250nL of compound to each well. For single shot assay, the final compound concentration was 5 uM. […] Automated image analysis was performed with a script developed on Acapella High Content Imaging and Analysis Software (PerkinElmer). Output: Percent of infected macrophage cells were reported for each well.
- Format: functional, organism-based, Homo sapiens
- ASSAY CONTEXT: THP-1

COMPOUND: COc1ccc(C2CC(c3ccc(NS(C)(=O)=O)cc3)=NN2C(=O)c2cccs2)cc1OC (stereo unspecified)
VALUE RELATION SIGN: =
IC50, µM: 5.01
--
COMPOUND: Cc1cc(NC(=O)C2CC2)ccc1OC1CCN(Cc2ccco2)CC1
VALUE RELATION SIGN: =
IC50, µM: 20
--
COMPOUND: Cn1nc([N+](=O)[O-])nc1Oc1ccc(C(=O)c2ccccc2)cc1
VALUE RELATION SIGN: >
IC50, µM: 50.1
--
COMPOUND: Clc1ccc(Sc2cnccc2N2CCOCC2)cc1
VALUE RELATION SIGN: >
IC50, µM: 50.1
--
COMPOUND: CCOC(=O)c1cn[nH]c1S(=O)(=O)N1CCC1c1ccccc1 (stereo unspecified)
VALUE RELATION SIGN: >
IC50, µM: 50.1
--
COMPOUND: O=C(NCCc1csc(-c2cccc(F)c2)n1)c1ccco1
VALUE RELATION SIGN: >
IC50, µM: 50.1
--
COMPOUND: Nc1ncnc2c1ncn2[C@@H]1O[C@H](CO)C[C@H]1O [CORDYCEPIN]
VALUE RELATION SIGN: >
IC50, µM: 50.1
--
COMPOUND: Cc1sc(C)c(C(F)(F)F)c1CNCCCNc1cc(=O)c2ccccc2[nH]1
VALUE RELATION SIGN: =
IC50, µM: 50.1
--
COMPOUND: COc1ccc(S(=O)(=O)NCc2ccc(-c3ccc(CN(C)CCO)cc3)cc2)cc1
VALUE RELATION SIGN: =
IC50, µM: 15.8
--
COMPOUND: COc1ccc([N+](=O)[O-])cc1NC(=O)Nc1cccc(Cl)c1
VALUE RELATION SIGN: >
IC50, µM: 50.1
--
COMPOUND: Cc1nc(N2CC(C)OC(C)C2)sc1C(=O)Nc1ccc2c(c1)OCO2 (stereo unspecified)
VALUE RELATION SIGN: =
IC50, µM: 7.94

* * *

- Test system: Leishmania donovani
- TEST DESCRIPTION: GSK_TCAKS: pIC50 Leishmania donovani Imaging: THP-1 Host Macrophages. Assay plates (384-well) were prepared by adding 250nL of compound to each well. For single shot assay, the final compound concentration was 5 uM. […] Automated image analysis was performed with a script developed on Acapella High Content Imaging and Analysis Software (PerkinElmer). Output: THP-1 cell count were reported for each well.
- Assay type: functional, organism-based, Homo sapiens
VALUE TYPE: IC50 (µM)

STRUCTURE AS SMILES: CC(C)Oc1cccc(N2CCC(C(=O)N3CCCN(C(C)C)CC3)CC2)c1
U: µM
VALUE RELATION SIGN: >
MEASURED NUMBER: 50.1
--
STRUCTURE AS SMILES: C=CCN(Cc1cccs1)C(=O)CSc1nnc(-c2ccc3c(c2)OCO3)o1
U: µM
VALUE RELATION SIGN: >
MEASURED NUMBER: 50.1
--
STRUCTURE AS SMILES: Cc1nc(C(=O)Nc2ccc3c(c2)OCO3)nn1-c1ccc(F)cc1
U: µM
VALUE RELATION SIGN: >
MEASURED NUMBER: 50.1
--
STRUCTURE AS SMILES: Cc1ccccc1OCC(=O)N1CCCN(c2cccnn2)CC1
U: µM
VALUE RELATION SIGN: >
MEASURED NUMBER: 50.1
--
STRUCTURE AS SMILES: CCCCN(C(=O)c1ccc(NC(=O)C(C)C)cc1)c1ccccc1
U: µM
VALUE RELATION SIGN: >
MEASURED NUMBER: 50.1
--
STRUCTURE AS SMILES: COc1ccc(OC)c2c(=O)c(Cc3ccccc3)c(C)[nH]c12
U: µM
VALUE RELATION SIGN: >
MEASURED NUMBER: 50.1
--
STRUCTURE AS SMILES: O=C(NCCNc1noc(-c2ccc([N+](=O)[O-])cc2)n1)c1ccc(Cl)cc1
U: µM
VALUE RELATION SIGN: =
MEASURED NUMBER: 15.8
--
STRUCTURE AS SMILES: CN(C(=O)Nc1ccc2c(c1)CCN(C1CCC1)CC2)c1ccc(C#N)cc1
U: µM
VALUE RELATION SIGN: >
MEASURED NUMBER: 50.1
--
STRUCTURE AS SMILES: O=[N+]([O-])c1ccc(-c2nnn(-c3cccnc3)n2)o1
U: µM
VALUE RELATION SIGN: =
MEASURED NUMBER: 12.6
--
STRUCTURE AS SMILES: O=C(Nc1nc(-c2ccccn2)cs1)c1ccccc1-n1cnnn1
U: µM
VALUE RELATION SIGN: =
MEASURED NUMBER: 5.01
--
STRUCTURE AS SMILES: CC(=O)Nc1ccc(-c2csc(NC(=O)c3ccc([N+](=O)[O-])s3)n2)cc1
U: µM
VALUE RELATION SIGN: =
MEASURED NUMBER: 12.6
--
STRUCTURE AS SMILES: CS(=O)(=O)N1CCC(Nc2ncc(Br)c(Nc3cccc(F)c3C(N)=O)n2)CC1
U: µM
VALUE RELATION SIGN: =
MEASURED NUMBER: 1
--
STRUCTURE AS SMILES: COc1ccc(CNc2cc(C3CC3)nc(-c3nccn3C)n2)cc1
U: µM
VALUE RELATION SIGN: =
MEASURED NUMBER: 12.6
--
STRUCTURE AS SMILES: O=C(CN(c1cccc(C(F)(F)F)c1)S(=O)(=O)c1ccc(Cl)cc1)NCc1ccc(F)c(F)c1
U: µM
VALUE RELATION SIGN: =
MEASURED NUMBER: 20
--
STRUCTURE AS SMILES: O=C(NCC1CCCCC1)c1cc(=O)c2ccccc2o1
U: µM
VALUE RELATION SIGN: >
MEASURED NUMBER: 50.1
--
STRUCTURE AS SMILES: CN(C)S(=O)(=O)c1cccc(C(=O)Nc2nc(-c3ccccn3)cs2)c1
U: µM
VALUE RELATION SIGN: =
MEASURED NUMBER: 7.94
--
STRUCTURE AS SMILES: Oc1cc(CSc2ccc(Cl)cc2)nc(-c2ccccn2)n1
U: µM
VALUE RELATION SIGN: =
MEASURED NUMBER: 3.98
--
STRUCTURE AS SMILES: CCCN(Cc1ccc(OC)c(OC)c1)Cc1cc(=O)c2c(C)cc(C)cc2[nH]1
U: µM
VALUE RELATION SIGN: =
MEASURED NUMBER: 5.01
--
STRUCTURE AS SMILES: COCCn1cnc2cc(NC(=O)C3CCCCC3)cc(C(=O)N3CCc4sccc4C3)c21
U: µM
VALUE RELATION SIGN: >
MEASURED NUMBER: 50.1
--
STRUCTURE AS SMILES: N#Cc1cccc(CN2CCC(N(Cc3cccnc3)C(=O)c3cc(F)c(F)cc3F)CC2)c1
U: µM
VALUE RELATION SIGN: >
MEASURED NUMBER: 50.1
--
STRUCTURE AS SMILES: Cc1ccc(NC(=O)c2ccnc(N3CCCC3)c2)cc1-c1ccsc1C(N)=O
U: µM
VALUE RELATION SIGN: >
MEASURED NUMBER: 50.1
--
STRUCTURE AS SMILES: Cc1nnc(-c2nc(NCc3ccc(Cl)cc3)c3cccnc3c2O)[nH]1
U: µM
VALUE RELATION SIGN: =
MEASURED NUMBER: 6.31
